Test: Solubility as a function of pH in buffers without and with 15% HPBCD
Format: physicochemical
Conditions: aqueous buffer with 15% HPBCD, aqueous with cosolvent or surfactant or cyclodextrin, thermodynamic from solid, pH 2 to pH 6.9, in the presence of 15% HPBCD; read-out: solubility across the tested pH range
Method: Buffers were prepared to cover a pH range of 2 to 7. Approximately 5 to 10 milligrams of drug was weighed into an HPLC vial to which 1.00 mL of the appropriate buffer was added. The solutions were vortexed briefly and were then shaken for five days on an orbital shaker. The prolonged shaking was carried out because slow equilibration had been observed during the initial formulation studies with different salt forms of MN-029. Buffers with 15% HPBCD were prepared from the previous buffers. […]
Where a name gives a salt, the structure may show the parent alone.
measurement type: solubility at 5 days

**Q:** Which measured solubility at 5 days value corresponds to COC(=O)Nc1nc2ccc(Sc3ccc(NC(=O)[C@H](C)N)cc3)cc2[nH]1 [MN-029 di-hydrochloride] ?
**A:** > 20 mg/mL

----------
test: Solubility as a function of pH in buffers without and with 15% HPBCD; format: physicochemical; conditions: aqueous buffer, pH 4, aqueous buffer, thermodynamic from solid, Without HPBCD, buffer pH 4.0, final pH 3.92; read-out: MN-029 Solubility
measurement type: solubility at 5 days (µg/mL)
Response body: numeric value in µg/mL, unit text excluded.

**Q:** Which measured solubility at 5 days value corresponds to COC(=O)Nc1nc2ccc(Sc3ccc(NC(=O)[C@H](C)N)cc3)cc2[nH]1 [MN-029] ?
**A:** 560

----------
experiment: Log P, Log Pion, Log D by potentiometric titration (Sirius GlpKa, octanol:water); format: physicochemical; details: octanol:ionic-strength adjusted water; read-out: Measured LogP
Structures can show the parent of a compound that is named as a salt.
measurement type: logP
Output: the number by itself.

**Q:** Which measured logP value corresponds to COC(=O)Nc1nc2ccc(Sc3ccc(NC(=O)[C@H](C)N)cc3)cc2[nH]1 [MN-029 di-hydrochloride] ?
**A:** 2.64

----------
test: Solubility as a function of pH in buffers without and with 15% HPBCD; format: physicochemical; details: aqueous buffer, pH 5, aqueous buffer, thermodynamic from solid, Without HPBCD, buffer pH 5.0, final pH 4.93; read-out: MN-029 Solubility
measurement type: solubility at 5 days (µg/mL)
Response body: numeric value in µg/mL, unit text excluded.

**Q:** Which measured solubility at 5 days value corresponds to COC(=O)Nc1nc2ccc(Sc3ccc(NC(=O)[C@H](C)N)cc3)cc2[nH]1 [MN-029] ?
**A:** 150

----------
assay: Solubility as a function of pH in buffers without and with 15% HPBCD; format: physicochemical; conditions: aqueous buffer, pH 6, aqueous buffer, thermodynamic from solid, Without HPBCD, buffer pH 6.0, final pH 6.24; read-out: MN-029 Solubility
measurement type: solubility at 5 days (µg/mL)
Response body: numeric value in µg/mL, unit text excluded.

**Q:** Which measured solubility at 5 days value corresponds to COC(=O)Nc1nc2ccc(Sc3ccc(NC(=O)[C@H](C)N)cc3)cc2[nH]1 ?
**A:** 130

----------
assay: Solubility as a function of pH in buffers without and with 15% HPBCD; assay type: physicochemical; conditions: aqueous buffer with 15% HPBCD, pH 5, aqueous with cosolvent or surfactant or cyclodextrin, thermodynamic from solid, With 15% HPBCD, buffer pH 5.0, final pH 5.24; read-out: MN-029 Solubility
measurement type: solubility at 5 days

**Q:** Which measured solubility at 5 days value corresponds to COC(=O)Nc1nc2ccc(Sc3ccc(NC(=O)[C@H](C)N)cc3)cc2[nH]1 ?
**A:** > 23 mg/mL

Recorded values, source patent US8633324B2.
